Parameter: growth inhibition. Scope: all listed entries.
- test: NCI Yeast Anticancer Drug Screen. Data for the sgs1 mgt1 strain (AID 161);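 further: 0% = growth of cultures given vehicle only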
- reported-conditions: S. cerevisiae sgs1 mgt1 strain, at 50.0 µM, stronger effect = higher value
This is part of a sample that, as a whole, favours compounds with a hit. Of some 79,000 tested, about 15% had one in any assay. The source made the active and inactive calls. No stated cut-off is given here; in the data, active means growth inhibition above about 70%; inactive means the rest.
measured-endpoint: growth inhibition

>>> recorded_result("CN(CC(=O)c1ccc(Cl)cc1)Cc1ccccc1")
"3.4% (inactive)"
>>> recorded_result("COc1ccc(C(=O)/C=C/c2ccc(OCC(=N)N)cc2)cc1")
"-18.8% (inactive)"
>>> recorded_result("Cc1c(N=Nc2cccc(Cl)c2Cl)c(-c2ccccc2)nn1C(=S)S")
"55.9% (inactive)"
>>> recorded_result("CC(C)CCCC(C)CCCC(C)CCCC(C)CC(=O)O (stereo unspecified)")
"-16.9% (inactive)"
>>> recorded_result("CC1=CC2=C(OCO1)C(=O)c1ccccc1C2=O")
"-21.6% (inactive)"
>>> recorded_result("CCOc1ccccc1NC(=O)C1=C(C)NC(C)=C(C(=O)Nc2ccccc2OCC)C1c1ccc2c(c1)OCO2")
"41.3% (inactive)"
>>> recorded_result("CC1=c2c(oc3cc(O)c(Nc4c(C)cc(O)cc4O)c(C)c23)=CC(=O)C1=Nc1c(C)cc(O)cc1O")
"0.45% (inactive)"
>>> recorded_result("O=C1C(=Nc2ccc(Cl)nc2)CC(c2ccccc2)N1c1ccc(Cl)nc1 (stereo unspecified)")
"16.1% (inactive)"
>>> recorded_result("Cc1cc(C=O)c(C)[nH]1")
"-2.4% (inactive)"
>>> recorded_result("CCCCCCCc1c(C)c2ccc(OC)cc2[nH]c1=O")
"-5.8% (inactive)"
>>> recorded_result("CC(=O)Nc1ccc(OC(C)=O)cc1N")
"2.9% (inactive)"
